Each record here notes measured GI50.
# Tested on: NCI-H226 lung
# experiment description: NCI tumour cell line growth inhibition, 48 h

Sample answers from the record:
O=C(O)c1cc[c]([Hg][S]c2ncnc3nc[nH]c23)cc1: > 39000 nM
O=C(Nc1ccc(OC(F)(F)F)cc1)c1sccc1NCc1ccnc2ccccc12: 2890 nM
C[n+]1cc2c3c(ccc2c2ccc4cc5c(cc4c21)OCO5)OCO3: 1540 nM
COc1cc(Nc2ccnc(N3CCN(c4ccnc5cc(Cl)ccc45)CC3)n2)cc(OC)c1: 2340 nM
COc1ccc2nc(-c3ccccc3)cc(Nc3cccc(/C(C)=N\O)c3)c2c1: 3180 nM

Query: Look up GI50: `S=C(N/N=C/c1cc(Cl)cc(Cl)c1)NC12CC3CC(CC(C3)C1)C2`
Response: > 29900 nM

Query: # repeat for `CC1(C)N=C(N)N=C(N)N1c1ccc(CCc2ccccc2)c(Cl)c1`
Response: 521 nM

====

# System: CAKI-1 renal
# experiment description: NCI tumour cell line growth inhibition, 48 h
Each record here notes measured log10(TGI).
For clarity, the numbers are log10 values of TGI expressed in µM.

Sample answers from the record:
C=C(C)[C@H]1CC(=O)/C(C)=C\CC/C(C)=C/CC[C@@]2(C)O[C@@H]2C1: 0.97
CN(C)c1ccc(/C=c2/c3ccccc3n3c2cc(-c2ccccc2)[n+]3C)cc1: 0.88
COC(=O)C1=C(C)NC(C)=C(C(=O)OC)C1c1cccc(N=O)c1: 1.35
C[n+]1cc2c3c(ccc2c2ccc4cc5c(cc4c21)OCO5)OCO3: 0.33
CC(O)CNC1=CC(=O)C(=O)c2ccccc21 (stereo not given): 1.53

Query: Give the reported log10(TGI) for CC(C)c1cccc(C(C)C)c1NC(=O)C(=O)C(C(=O)c1ccccc1-c1ccccc1)C1OC(=O)c2ccccc21 (stereo not given) (system: CAKI-1 renal).
Response: 1.88

Query: # repeat for `COc1ccc2nc(-c3ccccc3)cc(Nc3cccc(/C(C)=N\O)c3)c2c1`
Response: 1.11

Query: # repeat for `O=C(O)c1cc[c]([Hg][S]c2ncnc3nc[nH]c23)cc1`
Response: 1.32

Query: # repeat for `CCCCCCc1cc2cc(-c3csc(-c4ccc(OC)cc4)n3)c(=O)oc2cc1O`
Response: 1.30

Query: # repeat for `O=C(Nc1ccc(OC(F)(F)F)cc1)c1sccc1NCc1ccnc2ccccc12`
Response: 1.29

Query: # repeat for O=C1/C(=C/c2ccncc2)C(n2cccc2)c2c(Br)sc(Br)c21 (stereo not given)
Response: 1.04

====

# Tested on: BT-549 breast
# experiment description: NCI tumour cell line growth inhibition, 48 h
Each record here notes measured GI50.

Sample answers from the record:
Nc1cc(N)c2nc(-c3ccccc3)c(Oc3ccc(F)cc3)nc2c1: 15000 nM
CCN1CCN(Cc2ccc(NC(=O)Nc3ccc(-n4ccc5c(NC(=O)c6ccccc6)nccc54)cc3)cc2C(F)(F)F)CC1: 1430 nM
Cc1cccc(NC(=O)c2sc3nc4c(cc3c2N)CCCC4)c1C: 2510 nM
Cc1cc(N(CCNc2ccnc3cc(Cl)ccc23)Cc2ccc3c(c2)OCO3)nc(N2CCN(C)CC2)n1: 2170 nM
CCN(c1ccc(CO)c(Cl)c1)C(C)c1ccc(F)cc1 (configuration not stated): 15500 nM

Query: Look up GI50: `Cn1cc(C2=C(c3cn(C)c4ccc(N)cc34)C(=O)NC2=O)c2ccccc21`
Response: 7120 nM

Query: # repeat for `C[C@]12CC[C@@H]3c4ccc(O)c([N+](=O)[O-])c4CC[C@H]3[C@@H]1CC[C@@H]2NS(=O)(=O)c1ccc(C(F)(F)F)cc1`
Response: 1570 nM

====

# Tested on: MOLT-4 leukemia
# experiment description: NCI tumour cell line growth inhibition, 48 h; in the data active means GI50 below about 0.43 µM; inactive means the rest
Thanks in advance; please answer with one of these: yes (1) for active, no (0) for inactive

The following molecules have reported results that may help.
C[C@]12CC[C@@H]3c4ccc(O)c([N+](=O)[O-])c4CC[C@H]3[C@@H]1CC[C@@H]2NS(=O)(=O)c1ccc(C(F)(F)F)cc1: no (0)
COc1cc2cc(Oc3ccc(NC(=O)c4cccc(C(F)(F)F)c4)cc3)c(C)nc2cc1OC: no (0)
COc1ccc(-c2cc(-c3ccc(Cl)cc3)c(C#N)c(=O)n2CCCCC(=O)Nc2ccccc2N)cc1: no (0)
Cc1ccc(C(=O)Nc2ccc(CN3CCN(C)CC3)c(C(F)(F)F)c2)cc1C#Cc1cnc(N)c2ccc(F)cc12: yes (1)
COc1ccc(C(=O)N2c3ccccc3Sc3ccccc32)c(F)c1: no (0)

Query: Check the results log: what was the call for `COc1ccc2nc(-c3ccccc3)cc(Nc3cccc(/C(C)=N\O)c3)c2c1` ?
Response: no (0)

Query: # repeat for `CSc1ccc(C2=Nn3c(nnc3-c3ccc(F)c(Cl)c3)SC2)cc1`
Response: no (0)

Query: # repeat for `CC[O-].CC[O-].O=C1C(=C([O-])c2ccccc2)C(=O)c2ccccc21.O=C1C(=C([O-])c2ccccc2)C(=O)c2ccccc21.[Ti+4]`
Response: no (0)

Query: # repeat for `CS(=O)(=O)c1ccc(Cl)c([N+](=O)[O-])c1`
Response: no (0)

====

# Test system: EKVX NSCLC
# experiment description: NCI tumour cell line growth inhibition, 48 h
Each record here notes measured TGI.

CCCO/N=[N+](\[O-])N(CC)CC: > 100 µM
O=C1[C@@H](c2ccc(Cl)cc2)[C@H]2CC=C[C@H]2N1O: > 100 µM
COc1cc(-c2oc3ccccc3c(=O)c2O)cc(OC)c1OC: > 100 µM
COCC#C[C@@]1(O)CCCCC1CC(OC)OC (stereo partly specified): > 100 µM

Query: Look up TGI: `NCCN(CCN(C(=O)Nc1ccccc1)c1ccccc1)C(=O)Nc1ccccc1`
Response: 67.3 µM

Query: # repeat for N/C(=N\OC(=O)c1ccccc1)C(C(=O)NOC(=O)c1ccccc1)C1CCCCC1 (stereo unspecified)
Response: 20.9 µM

====

Each record here notes measured TGI.
# System: HCC-2998 colon
# experiment description: NCI tumour cell line growth inhibition, 48 h

Cn1cc(C2=C(c3cn(C)c4ccc(N)cc34)C(=O)NC2=O)c2ccccc21: > 25 µM
C=C1C(=O)O[C@@H]2C[C@@]3(C)CC(=O)C=C(C)[C@@H]3C[C@H]12: 28.1 µM
CC(=O)c1cccc(N(/C=C/C(=O)C(F)(F)F)CC(=O)c2ccc(Cl)cc2)c1: > 100 µM
O=C(/C=C\Nc1ccccc1O)C(F)(F)F: > 100 µM
CCc1ccccc1NC(=O)C(=O)C(C(=O)c1ccc(OC)cc1)c1ccc(OC)cc1 (stereo not drawn): > 100 µM

Query: Look up TGI: `Cc1cc(OCc2nnc3sc(NC(=O)c4ccccc4)nn23)ccc1Cl`
Response: 90.2 µM

Query: # repeat for `S=c1[nH]nc(Cn2c3ccc(Br)cc3c3nc4ccccc4nc32)n1C1CCCCC1`
Response: 61 µM

Query: # repeat for `N#Cc1ccc(-c2nc(C#N)c(N)o2)cc1`
Response: > 10 µM

Query: # repeat for `Cc1nnc2n1-c1ccccc1N(Cc1ccccc1)CC2`
Response: > 100 µM

Query: # repeat for `CCC(=O)Nc1ccc(NS(=O)(=O)c2ccc(Cl)cc2)cc1`
Response: > 100 µM

Query: # repeat for C#CCOCC12C=CC(O1)C1COC(=O)C12 (stereo not drawn)
Response: > 100 µM

Query: # repeat for `O=C(Sc1c(-c2ccccc2)c(=O)n(-c2ccccc2)c(=S)n1-c1ccccc1)c1ccco1`
Response: > 100 µM

Query: # repeat for Cc1cc2c(cc1C)NC1=C(N2)OC(c2c[nH]c3ccc(COc4ccccc4)cc23)C1=O (stereo not drawn)
Response: 98.5 µM

====

# Tested on: T-47D breast
# experiment description: NCI tumour cell line growth inhibition, 48 h
parameter: TGI

COc1ccc(C2SC(N)=Nc3c2c(C)nn3C(=O)c2ccc(Cl)cc2)cc1OC (centres undefined): > 10 µM
CC(CO)[C@H]1OC(=O)C=C2[C@@]13O[C@@H]3[C@H]1OC(=O)[C@@]3(C)[C@H]4O[C@H]4C[C@@]2(C)[C@@H]13 (some centres undefined): > 46.1 µM
Nc1nncc2[nH]cnc12: > 100 µM

Turning now to a further record.
Query: Look up TGI: `Cc1cc(OCc2nnc3sc(NC(=O)c4ccccc4)nn23)ccc1Cl`
Response: > 100 µM

====

# System: SK-MEL-5 melanoma
# experiment description: NCI tumour cell line growth inhibition, 48 h
Each record here notes measured TGI.

COc1ccc([C@H]2CC(=O)N3CCCC3N2)cc1 (stereo partly drawn): > 100 µM
Cc1c(C)c2cc3c(=O)ccoc3c(C)c2oc1=O: > 100 µM
Cc1cc2c(cc1C)NC1=C(N2)OC(c2c[nH]c3ccc(COc4ccccc4)cc23)C1=O (stereo not drawn): > 100 µM

Turning now to a further record.
Query: Look up TGI: NC(Cc1[nH]nc2ccccc12)C(=O)O (stereo not drawn)
Response: > 100 µM
